- targetOrSystem: Prostaglandin G/H synthase 2 (Ovis aries, UniProt P79208)
- Sequence (P79208 whole entry): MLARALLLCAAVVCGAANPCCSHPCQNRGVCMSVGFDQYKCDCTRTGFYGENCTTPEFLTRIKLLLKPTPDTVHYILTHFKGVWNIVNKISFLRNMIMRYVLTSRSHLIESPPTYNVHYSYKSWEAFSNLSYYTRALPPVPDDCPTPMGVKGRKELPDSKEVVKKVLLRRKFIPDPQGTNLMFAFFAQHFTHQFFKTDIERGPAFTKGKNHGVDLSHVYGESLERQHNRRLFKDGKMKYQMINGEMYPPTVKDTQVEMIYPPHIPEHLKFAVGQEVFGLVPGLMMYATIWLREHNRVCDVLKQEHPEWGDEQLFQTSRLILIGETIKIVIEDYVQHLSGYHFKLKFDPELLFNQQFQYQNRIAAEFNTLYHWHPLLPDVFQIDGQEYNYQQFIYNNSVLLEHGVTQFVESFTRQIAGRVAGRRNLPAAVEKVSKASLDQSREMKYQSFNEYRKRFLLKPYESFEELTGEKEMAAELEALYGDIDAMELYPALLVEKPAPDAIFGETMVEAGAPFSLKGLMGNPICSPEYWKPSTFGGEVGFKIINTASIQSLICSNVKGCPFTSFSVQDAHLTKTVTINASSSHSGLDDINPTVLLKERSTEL
recordedMetric: IC50

Cc1cc(=O)n(-c2ccccc2)[nH]1 [MLS000069602]; 35 µM
Cc1[nH]n(-c2ccccc2)c(=O)c1CNC(=O)Nc1ccc(Cl)cc1; > 100 µM

Item: Cc1[nH]n(-c2ccccc2)c(=O)c1CNc1ccc(S(N)(=O)=O)cc1 Test system: Prostaglandin G/H synthase 2 (Ovis aries, UniProt P79208) Read-out: IC50 Value: ?
1 µM

* * *

- targetOrSystem: Prostaglandin G/H synthase 1 (Ovis aries)
- Sequence (P05979 whole entry): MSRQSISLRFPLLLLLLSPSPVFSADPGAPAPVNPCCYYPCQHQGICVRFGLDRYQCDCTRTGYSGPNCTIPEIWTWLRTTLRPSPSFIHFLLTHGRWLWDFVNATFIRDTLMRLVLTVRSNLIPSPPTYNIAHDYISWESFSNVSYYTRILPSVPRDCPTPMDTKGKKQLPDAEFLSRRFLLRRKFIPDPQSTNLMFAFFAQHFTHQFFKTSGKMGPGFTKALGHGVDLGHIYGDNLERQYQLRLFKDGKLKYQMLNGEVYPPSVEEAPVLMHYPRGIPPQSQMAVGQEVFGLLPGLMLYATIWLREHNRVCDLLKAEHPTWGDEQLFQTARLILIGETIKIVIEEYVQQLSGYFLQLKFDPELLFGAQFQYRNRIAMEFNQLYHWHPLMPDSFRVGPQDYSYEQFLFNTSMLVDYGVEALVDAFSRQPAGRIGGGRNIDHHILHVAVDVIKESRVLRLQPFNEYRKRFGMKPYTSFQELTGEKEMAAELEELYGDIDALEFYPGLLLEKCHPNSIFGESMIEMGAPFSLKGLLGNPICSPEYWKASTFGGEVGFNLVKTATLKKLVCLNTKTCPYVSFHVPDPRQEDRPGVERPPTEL
So I've got a bunch of compounds here, and I need their IC50 values.

State recorded IC50 for all listed compounds.
1. Cc1[nH]n(-c2ccccc2)c(=O)c1CNC(N)=S
2. Cc1[nH]n(-c2ccccc2)c(=O)c1CNC(=O)NN
3. Cc1[nH]n(-c2ccccc2)c(=O)c1CN=C(N)N
4. Cc1[nH]n(-c2ccccc2)c(=O)c1CNC(=S)Nc1ccccc1

["> 100 µM", "> 100 µM", "> 100 µM", "80 µM"]
